concentration at 4 h reference
Experiment: Drug level in Sprague-Dawley rat brain at 10 mg/kg, po after 4 hrs
Assay type: ADME, organism-based
Design: dose 10 mg/kg, route oral
resultType: concentration at 4 h (ng/g)

In [3]: df
Out[3]:
                                  cpdsmiles  reading
0  Cc1cnc(N[C@H]2CC[C@@H](CNC(=O)c3cc(C(F)(F)F)cc(C(F)(F)F)c3)CC2)nc1N(C)C       10
1  CN(C)c1nc(N[C@H]2CC[C@@H](NC(=O)c3ccc(F)c(F)c3)CC2)nc2ccccc12       70

---

Target sequence: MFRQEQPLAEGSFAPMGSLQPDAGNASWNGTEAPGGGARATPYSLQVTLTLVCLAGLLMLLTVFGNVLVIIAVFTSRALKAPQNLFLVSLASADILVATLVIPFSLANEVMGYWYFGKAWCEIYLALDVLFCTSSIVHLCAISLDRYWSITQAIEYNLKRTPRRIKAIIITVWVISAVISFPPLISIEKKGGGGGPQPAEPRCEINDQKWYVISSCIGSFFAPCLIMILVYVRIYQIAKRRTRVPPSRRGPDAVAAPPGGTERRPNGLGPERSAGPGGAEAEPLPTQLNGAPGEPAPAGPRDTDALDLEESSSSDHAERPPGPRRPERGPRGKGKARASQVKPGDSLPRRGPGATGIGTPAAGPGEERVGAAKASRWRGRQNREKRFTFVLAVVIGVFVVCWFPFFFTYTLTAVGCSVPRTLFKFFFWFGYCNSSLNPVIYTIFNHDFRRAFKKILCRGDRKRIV
IC50 vs 200 nM: less than gives YES; not less than gives NO.

                                  cpdsmiles  classification
0  Cc1cccc(C(=O)N[C@H]2CC[C@@H](Nc3ncc(C)c(N(C)C)n3)CC2)c1              NO
1  CN(C)c1nc(N[C@H]2CC[C@@H](NC(=O)c3ccc(F)c(F)c3)CC2)nc2ccccc12             YES
2  Cc1cnc(N[C@H]2CC[C@@H](CNC(=O)c3ccc(F)c(F)c3)CC2)nc1N(C)C              NO
3  Cc1cc(N(C)C)nc(N[C@H]2CC[C@@H](NC(=O)c3ccc(Cl)cc3)CC2)n1              NO

// data source = ChEMBL document CHEMBL1156067
